- Protocol summary: Antiproliferative activity against VEGF-stimulated HUVEC cells assessed as reduction in cell viability at 10 nM preincubated for 1 hr followed by addition of VEGF measured after 72 hrs by MTT assay
- Assay type: functional
- Experimental parameters: Homo sapiens
Rule: inhibition at 0.01 µM of 30% or more gives true (1); anything lower gives false (0).

{"columns": ["Molecule", "Category"],
 "data": [
  ["CC(=O)N1CCC(C(=O)Nc2cccc(C(=O)c3ccc4c(/C=C/c5ccccc5)n[nH]c4c3)c2)CC1", "true (1)"],
  ["O=C(Nc1cccc(Nc2ccc3c(/C=C/c4ccccc4)n[nH]c3c2)c1)C1C[C@H]2C=C[C@H]1C2 (some centres not stated)", "false (0)"],
  ["O=C(Nc1cccc(Nc2ccc3c(/C=C/c4ccccc4)n[nH]c3c2)c1)C1CC2C=CCC(C2)C1 (configuration not stated)", "false (0)"],
  ["O=C(Cn1ccc2ccccc21)Nc1cccc(C(=O)c2ccc3c(/C=C/c4ccccc4)n[nH]c3c2)c1", "false (0)"],
  ["Cc1cc(C(=O)Nc2cccc(C(=O)c3ccc4c(/C=C/c5ccccc5)n[nH]c4c3)c2)no1", "true (1)"],
  ["C/C(=C\\C(=O)Nc1cccc(Oc2ccc3c(/C=C/c4ccccc4)n[nH]c3c2)c1)c1ccccc1C", "true (1)"],
  ["CCO/C(C)=C/C(=O)Nc1cccc(Nc2ccc3c(/C=C/c4ccccc4)n[nH]c3c2)c1", "true (1)"],
  ["O=C(Cc1cccnc1)Nc1cccc(Nc2ccc3c(/C=C/c4ccccc4)n[nH]c3c2)c1", "true (1)"],
  ["CC1(C)OC(=O)CC1C(=O)Nc1cccc(C(=O)c2ccc3c(/C=C/c4ccccc4)n[nH]c3c2)c1 (configuration not stated)", "false (0)"],
  ["O=C(c1cccc(NC(=O)C2CC3CC(O)C2C3)c1)c1ccc2c(/C=C/c3ccccc3)n[nH]c2c1 (configuration not stated)", "true (1)"],
  ["CC(C)[C@@H](O)C(=O)Nc1cccc(Nc2ccc3c(/C=C/c4ccccc4)n[nH]c3c2)c1", "false (0)"],
  ["CC(=O)NC(C)(C)CC(=O)Nc1cccc(C(=O)c2ccc3c(/C=C/c4ccccc4)n[nH]c3c2)c1", "true (1)"],
  ["O=C(c1cccc(NC(=O)c2cc(=O)[nH]c(=O)[nH]2)c1)c1ccc2c(/C=C/c3ccccc3)n[nH]c2c1", "false (0)"],
  ["O=C(CCC(=O)N1CCCC1)Nc1cccc(Nc2ccc3c(/C=C/c4ccccc4)n[nH]c3c2)c1", "false (0)"],
  ["O=C(Nc1cccc(Nc2ccc3c(/C=C/c4ccccc4)n[nH]c3c2)c1)C1CC2CC(O)C1C2 (configuration not stated)", "false (0)"],
  ["O=C(Cc1c(F)cccc1F)Nc1cccc(Oc2ccc3c(/C=C/c4ccccc4)n[nH]c3c2)c1", "true (1)"],
  ["CC(C)(C)[C@@H](O)C(=O)Nc1cccc(C(=O)c2ccc3c(/C=C/c4ccccc4)n[nH]c3c2)c1", "false (0)"]
]}

----------
- Protocol summary: Terminal half life in B6 mouse at 25 mg/kg, po administered in 0.5% CMC by UV-HPLC analysis
- Type: ADME, organism-based
- Experimental parameters: in vivo, read-out: beta t1/2 (converted)

{"columns": ["Cpd smiles", "half-life"],
 "data": [
  ["CCONC(=O)c1ccccc1Sc1ccc2c(/C=C/c3ccccn3)n[nH]c2c1", "2 h"]
]}
